Origin of measurements: patent US20250263469A1

Molecular target: SARS-CoV-2 Spike on pseudotyped virus (PsV) (SARS-CoV-2, UniProt P0DTC2 14-1273)
Assay: cell-based or functional assay
Give IC50 SARS-CoV2 PsV, IgG for every item shown.

[
  {
    "binder": "mAb 120 (antibody, V domains shown) VH: QVQLVQSGAEVKKPGASVKVSCKASGYTFTSYDINWVRQAPGQGLEWMGMIDPSGGSTSYAQKFQGRVTMTRDTSTSTVYMELSSLRSEDTAVYYCAKDFGGGTRYDYWYFDLWGRGTLVTVSS VL: EIVMTQSPATLSVSPGERATLSCRASQSVSSRYLAWYQQKPGQAPRLLIYGASTRATGIPARFSGSGSGTEFTLTISSLQSEDFAVYYCQQYYTTPRTFGQGTRLEIKR",
    "IC50 SARS-CoV2 PsV, IgG": "> 50 µg/mL"
  },
  {
    "binder": "mAb 82 (antibody, V domains shown) VH: QVQLVQSGAEVKKPGASVKVSCKASGGSFSTSAFYWVRQAPGQGLEWMGWINPYTGGTNYAQKFQGRVTMTRDTSTSTVYMELSSLRSEDTAVYYCARSRALYGSGSYFDYWGQGTLVTVSS VL: DIQMTQSPSSLSASVGDRVTITCRASQVISNYLAWYQQKPGKAPKLLIYDASNLETGVPSRFSGSGSGTDFTLTISSLQPEDFATYYCQQSFSPPPTFGQGTRLEIKR",
    "IC50 SARS-CoV2 PsV, IgG": "1.6 µg/mL"
  }
]

Moving on to another binder below.
Give the value of IC50 SARS-CoV2 PsV, IgG reported for the following: mAb 56 (antibody, V domains shown) VH: QVQLVQSGAEVKKPGASVKVSCKASGYTFTSYGISWVRQAPGQGLEWMGWISAYNGNTNYAQKLQGRVTMTRDTSTSTVYMELSSLRSEDTAVYYCARDIGPIDYWGQGTLVTVSS VL: DIQMTQSPSSLSASVGDRVTITCRASQGISSYLAWYQQKPGKAPKLLIYDASNLQSGVPSRFSGSGSGTDFTLTISSLQPEDFATYYCQQANSFPSTFGQGTKVEIKR
> 50 µg/mL
